Data origin, for the record: BigSolDB 2.1

conditionLabel: in acetone, 293.15 K
recordedEndpoint: solubility (mole fraction)
Just the number.

Quick check: solubility (mole fraction) of C[C@H](N)C(=O)O ? 0.000116

* * *

conditionLabel: in n-propanol, 323.15 K
recordedEndpoint: solubility (mole fraction)
Write the value as a bare number.

Fill in the blank: the reported solubility (mole fraction) of C[C@H](N)C(=O)O is ____. 0.000452

* * *

conditionLabel: in acetone, 313.15 K
recordedEndpoint: solubility (mole fraction)
Hey, just send me the number, nothing else.

Give its solubility (mole fraction) value. Item: C[C@H](N)C(=O)O 0.000166

* * *

conditionLabel: in isobutanol, 283.15 K
recordedEndpoint: solubility (mole fraction)
Give a plain numeric answer without units written out.

Sample C[C@H](N)C(=O)O — what was its solubility (mole fraction)? 0.000294

* * *

conditionLabel: in methanol, 323.15 K
recordedEndpoint: solubility (mole fraction)
No unit in the answer, please; the number alone is enough.

# lookup: solubility (mole fraction) of C[C@H](N)C(=O)O 0.00062

* * *

conditionLabel: in ethyl acetate, 283.15 K
recordedEndpoint: solubility (mole fraction)
Provide a numeric answer; units are not to be included.

Could you tell me which solubility (mole fraction) is on file for C[C@H](N)C(=O)O ? 7.8e-05

* * *

conditionLabel: in ethanol, 313.15 K
recordedEndpoint: solubility (mole fraction)
Output: the number by itself.

So what does the record say about solubility (mole fraction) for C[C@H](N)C(=O)O ? 0.000251

* * *

conditionLabel: in acetone, 283.15 K
recordedEndpoint: solubility (mole fraction)
Simply state the number, no unit and no words.

Looking for the measured solubility (mole fraction) of C[C@H](N)C(=O)O , can you help? 7.1e-05

* * *

conditionLabel: in ethyl acetate, 323.15 K
recordedEndpoint: solubility (mole fraction)
Write the number on its own, no unit after it.

Form field: reported solubility (mole fraction) of C[C@H](N)C(=O)O 0.000217

* * *

conditionLabel: in n-butanol, 303.15 K
recordedEndpoint: solubility (mole fraction)
Answer with the value's number alone.

Please give the measured solubility (mole fraction) for this compound: C[C@H](N)C(=O)O 0.000517

* * *

conditionLabel: in isobutanol, 313.15 K
recordedEndpoint: solubility (mole fraction)
Write the number on its own, no unit after it.

Item under review: C[C@H](N)C(=O)O . Reported solubility (mole fraction)? 0.000346

* * *

conditionLabel: in isobutanol, 303.15 K
recordedEndpoint: solubility (mole fraction)
Respond using a number only.

Form field: reported solubility (mole fraction) of C[C@H](N)C(=O)O 0.000332

* * *

conditionLabel: in methanol, 293.15 K
recordedEndpoint: solubility (mole fraction)
Lab note: jot the number down without any unit.

Please give the measured solubility (mole fraction) for this molecule: C[C@H](N)C(=O)O 0.000428

* * *

conditionLabel: in acetone, 323.15 K
recordedEndpoint: solubility (mole fraction)

Given the compound C[C@H](N)C(=O)O , what is its reported solubility (mole fraction)? 0.000202

* * *

conditionLabel: in ethanol, 323.15 K
recordedEndpoint: solubility (mole fraction)
# answer = number (no unit)

What value of solubility (mole fraction) has been reported for the following molecule? C[C@H](N)C(=O)O 0.00027

* * *

conditionLabel: in sec-butanol, 293.15 K
recordedEndpoint: solubility (mole fraction)
Reply briefly: the number, and no unit.

// solubility (mole fraction) lookup, key: C[C@H](N)C(=O)O 0.000333
